Attribution: PubChem BioAssay

Listed below: viability values for each entry.
# method: MRP1 drug-resistance reversers in H69AR cells – cell-based, doxorubicin co-treatment, pilot screen (AID 601)
# particulars: H69AR cells + 2 uM doxorubicin, CellTiter-Glo, 72 h; measured here: viability with 2 uM doxorubicin; at 10 µM; stronger effect = lower value
Unit % implied. Number only.

>>> value_observed("COc1cccc(-n2c(SCC(=O)Nc3cc(C)on3)nc3c([nH]c4ccccc43)c2=O)c1")
82.6
>>> value_observed("CCOc1ccc(N(C(C)C(=O)NC2CCCCCC2)S(C)(=O)=O)cc1 (stereo not given)")
92.7
>>> value_observed("Cn1cccc1Cc1nnc(SCC(=O)NCC2CCCO2)n1-c1ccc(F)cc1 (stereo not given)")
90.9
>>> value_observed("Cc1n[nH]c(C)c1N1C(=O)c2cccc3cc(Br)cc(c23)C1=O")
82.4

Please look at the following compound next.
Enquiry: Form field: reported viability of CC1CCN(C(=O)CSCC(=O)Nc2nc(-c3cccs3)cs2)CC1
Return: 86.6
